Molecular target: Human rhinovirus A protease (Human rhinovirus sp.)
Sequence (whole entry): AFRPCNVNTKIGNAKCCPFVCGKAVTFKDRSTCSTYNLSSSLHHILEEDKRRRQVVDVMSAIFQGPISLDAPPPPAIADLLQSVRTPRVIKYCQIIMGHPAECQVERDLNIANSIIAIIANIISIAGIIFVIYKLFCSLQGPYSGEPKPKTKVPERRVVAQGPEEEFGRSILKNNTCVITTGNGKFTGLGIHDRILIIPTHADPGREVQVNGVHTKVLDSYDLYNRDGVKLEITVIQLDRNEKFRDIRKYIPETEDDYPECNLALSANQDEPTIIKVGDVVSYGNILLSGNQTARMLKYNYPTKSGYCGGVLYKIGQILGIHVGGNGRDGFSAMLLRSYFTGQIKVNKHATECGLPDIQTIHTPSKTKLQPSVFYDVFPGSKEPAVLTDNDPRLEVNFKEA
Experiment: Irreversible inhibition of Human Rhinovirus (HRV-14) 3C Protease
Conditions: Rhinovirus B
Decide using K obs / 1 alone. Strictly below 60 M⁻¹ s⁻¹: t. Equal to or above 60 M⁻¹ s⁻¹: f.

Ask: A record lists CCOC(=O)/C=C/c1cc(CN2CCN(c3ncccn3)CC2)cc(C(N)=O)c1 . Is its K obs / 1 below 60 M⁻¹ s⁻¹?
Result: f

Ask: A record lists NC(=O)c1cccc(/C=C/C(=O)OCCO)c1 . Is its K obs / 1 below 60 M⁻¹ s⁻¹?
Result: t

Ask: A record lists CCOC(=O)/C=C/c1cc(CO)cc(C(N)=O)c1 . Is its K obs / 1 below 60 M⁻¹ s⁻¹?
Result: t

Ask: A record lists CCOC(=O)/C=C/c1cc(CN2CCN(c3ccccn3)CC2)cc(C(N)=O)c1 . Is its K obs / 1 below 60 M⁻¹ s⁻¹?
Result: f

Ask: A record lists CCOC(=O)/C=C/c1cc(CN2CCN(C(=O)OCC)CC2)cc(C(N)=O)c1 . Is its K obs / 1 below 60 M⁻¹ s⁻¹?
Result: f

Ask: A record lists CCOC(=O)/C=C/c1cc(O)cc(C(N)=O)c1 . Is its K obs / 1 below 60 M⁻¹ s⁻¹?
Result: t

Ask: A record lists CCOC(=O)/C=C/c1cc(CN2CCN(c3ccccc3C#N)CC2)cc(C(N)=O)c1 . Is its K obs / 1 below 60 M⁻¹ s⁻¹?
Result: f

Ask: A record lists COC(=O)/C=C/c1cccc(C(N)=O)c1 . Is its K obs / 1 below 60 M⁻¹ s⁻¹?
Result: t

Ask: A record lists NC(=O)c1cccc(/C=C/C(=O)OCc2ccccn2)c1 . Is its K obs / 1 below 60 M⁻¹ s⁻¹?
Result: t

Ask: A record lists NC(=O)c1cccc(/C=C/C(=O)OCc2ccccc2)c1 . Is its K obs / 1 below 60 M⁻¹ s⁻¹?
Result: t

Ask: A record lists CCOC(=O)/C=C/c1cccc(C(N)=O)c1 . Is its K obs / 1 below 60 M⁻¹ s⁻¹?
Result: t
